Target: T1, human CLDN18.2 (human)
T1 construct: the HEK293 line was made with a GenScript plasmid; also called hCLDN18.2
Test: competition FACS on HEK293/hCLDN18.2 cells; competitor 10 nM biotinylated PR000400
observable: Maximum inhibition rate (%)
A number alone suffices; assume %.

Note Maximum inhibition rate (%) for the binder shown: PR004227 (antibody, V domains shown, anti-CLDN18.2 HCAb: VH fused to human IgG1 Fc, no light chain; also called R1029P(CG20)001B02) VH: EVQLVESGGGLVQPGGSLRLSCAASGFTFSSYWMHWVRQAPGKGLEWVSYINNDGSSTRYADSVKGRFTISRDNAKNTLYLQMNSLRAEDTAVYYCTEAPPYGNYERDYWGQGTLVTVSS
98.3

Hello, please tell me recorded Maximum inhibition rate (%) for this one: PR004949 (antibody, V domains shown, anti-CLDN18.2 HCAb: VH fused to human IgG1 Fc, no light chain; also called R1029P021C02) VH: EVQLVESGGGLVQPGGSLRLSCAASGFTFSAYWMHWVRQVPGRGLVWVSRINSDGSRTIYADSVKGRFTISRDNAKNTLYLQMNSLRAEDTAVYLCARGEDHDMLTGYPVRGQGTMVTVSS
98.5

For PR000400 (antibody, human IgG1, kappa, V domains shown, also called IMAB362 analogue) VH: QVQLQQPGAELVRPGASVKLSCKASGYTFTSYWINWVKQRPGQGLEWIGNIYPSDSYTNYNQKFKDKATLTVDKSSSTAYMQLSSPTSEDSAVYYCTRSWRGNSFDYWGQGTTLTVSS VL: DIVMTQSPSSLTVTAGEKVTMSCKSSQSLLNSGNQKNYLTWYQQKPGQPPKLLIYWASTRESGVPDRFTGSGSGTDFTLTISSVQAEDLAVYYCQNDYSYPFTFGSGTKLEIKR , write its Maximum inhibition rate (%).
96.4

Determine its reported Maximum inhibition rate (%): PR004536 (antibody, V domains shown, anti-CLDN18.2 HCAb: VH fused to human IgG1 Fc, no light chain; also called R1029P028A11) VH: EVQLVESGGGLVQPGGSLRLSCAASGFTFSSYWMYWVRQVPGKGLVWVSHINSDGSTTQYADSVKGRFTISRDNAKNMLYLQMNSLRAEDTAVYYCARDFPVLGGSHFDFQHWGQGTLVTVSS
98

Quick one: give measured Maximum inhibition rate (%) for PR004533 (antibody, V domains shown, anti-CLDN18.2 HCAb: VH fused to human IgG1 Fc, no light chain; also called R1029P021E10) VH: EVQLVESGGGLVQPGGSLRLSCAASGFTFSSYWMHWVRQVPGKGLVWVSRINSDGSRTIYADSVKGRFTISRDNAKNTLYLQMNSLRAEDTAVYYCARGEDHDILTGYPIRGQGTTVTVSS
98.6

Dear colleague, please send me the reported Maximum inhibition rate (%) for PR004950 (antibody, V domains shown, anti-CLDN18.2 HCAb: VH fused to human IgG1 Fc, no light chain; also called R1029P021F07) VH: EVQLVESGGGLVQPGGSLRLSCAASGFTFSAYWMHWVRQVPGKGLVWVSRINSDGSRTIYADSVKGRFTISRDNAKNTLYLQMNSLRAEDTAVYYCARGEDHDILTGYPIRGQGTMVTVSS when you can.
98.5

Quote Maximum inhibition rate (%) reported for PR004540 (antibody, V domains shown, anti-CLDN18.2 HCAb: VH fused to human IgG1 Fc, no light chain; also called R1029P037B07) VH: EVQLVESGGGLVQPGGSLRLSCAASGFTFSIYWMHWVRQVPGKGLVLVSRISSDGNYTSYADSVKGRFTISRDNAKNTLYLQMNSLRAEDTAVYLCARGEDHDMLTGYPVRGQGTTVTVSS please.
95.8

For the binder PR004953 (antibody, V domains shown, anti-CLDN18.2 HCAb: VH fused to human IgG1 Fc, no light chain; also called R1029P024B07) VH: EVQLVESGGGVVQPGRSLRLSCAASGFTFSSYGMHWVRQAPGKGLEWVAVIGYDGRNKYYADSVKGRFTISRDNSKNTLFLQMDNLRAEDTALYYCARHFPSLPGTTDTFDIRGPGTMVTVSS , give its reported Maximum inhibition rate (%).
98

Reference source for all entries: patent US20250340631A1
